- measurementDescription: Intrinsic clearance in mouse liver microsomes at 0.2 uM
- Type: ADME, Microsome
Listed here are compounds together with their documented CLint scaled at 0.2 µM.

| compoundStructureString | operatorSymbol | CLint scaled at 0.2 µM [mL/min/kg] |
| --- | --- | --- |
| Cc1c(COc2cc(OCCC(C)(C)O)ccn2)[nH]c2ccccc2c1=O | = | 112 |
| Cc1c(COc2cccc(OCC3CCOCC3)c2)[nH]c2ccccc2c1=O | = | 420 |
| Cc1c(COc2cc(OCC3CCOCC3)ccn2)[nH]c2ccccc2c1=O | = | 312 |
| Cc1c(COc2cccc(OCC3CCOCC3)c2)[nH]c2ccc(F)cc2c1=O | > | 1000 |
| Cc1c(COc2cccc(OCC3CCOCC3)c2)[nH]c2ccc(C(=O)O)cc2c1=O | < | 50 |
